Parameter 'readout' = AC50; parameter 'system' = UniProt P08684.
Sequence (P08684 whole entry): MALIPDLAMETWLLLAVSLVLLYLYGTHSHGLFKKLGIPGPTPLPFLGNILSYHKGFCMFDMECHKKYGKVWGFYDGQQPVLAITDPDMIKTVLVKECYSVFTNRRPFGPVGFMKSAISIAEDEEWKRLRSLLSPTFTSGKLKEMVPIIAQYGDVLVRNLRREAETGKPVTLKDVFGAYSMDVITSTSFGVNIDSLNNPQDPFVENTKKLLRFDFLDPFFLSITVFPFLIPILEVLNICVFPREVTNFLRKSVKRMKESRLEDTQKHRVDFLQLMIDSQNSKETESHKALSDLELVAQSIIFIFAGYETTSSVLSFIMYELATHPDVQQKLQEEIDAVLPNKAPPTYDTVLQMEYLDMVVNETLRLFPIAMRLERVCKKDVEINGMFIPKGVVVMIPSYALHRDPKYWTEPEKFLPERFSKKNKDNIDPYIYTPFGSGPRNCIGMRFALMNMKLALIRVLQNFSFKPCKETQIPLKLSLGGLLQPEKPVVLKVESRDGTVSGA
parameter: AC50

                               linenotation  parameter     observedmeasurement
0  C/C(CCC(=O)OC[C@@H]1O[C@H](C#Cc2ccccc2)C=C[C@@H]1Oc1ccc(C)cc1)=N/OC[C@@H](C)[C@H](OCc1ccccc1)C(C)C       AC50  3.98 µM (inconclusive)
1           Cc1nc(N=C(N)S)sc1C(=O)Nc1ccccc1       AC50  14.1 µM (inconclusive)
2  CN1CCN(c2ncc3nc(CCc4ccccc4)c(=O)n(Cc4cccs4)c3n2)CC1       AC50  12.6 µM (inconclusive)
3  CC(C)C(=O)Nc1ccc(C(=O)NNC(=O)C(c2ccccc2)c2ccccc2)cc1       AC50  4.47 µM (inconclusive)

Cited source for all entries: ChEMBL document CHEMBL1201862
